molecular target: human PCSK9 (Homo sapiens); assay: PCSK9 ligand binding assay (TR-FRET): interference with binding of human PCSK9 to human LDLR; settings: Human PCSK9 Alexa Fluor 647 / Human LDLR extracellular domain-Europium Kryptate
Sequence (Q8NBP7 153-692): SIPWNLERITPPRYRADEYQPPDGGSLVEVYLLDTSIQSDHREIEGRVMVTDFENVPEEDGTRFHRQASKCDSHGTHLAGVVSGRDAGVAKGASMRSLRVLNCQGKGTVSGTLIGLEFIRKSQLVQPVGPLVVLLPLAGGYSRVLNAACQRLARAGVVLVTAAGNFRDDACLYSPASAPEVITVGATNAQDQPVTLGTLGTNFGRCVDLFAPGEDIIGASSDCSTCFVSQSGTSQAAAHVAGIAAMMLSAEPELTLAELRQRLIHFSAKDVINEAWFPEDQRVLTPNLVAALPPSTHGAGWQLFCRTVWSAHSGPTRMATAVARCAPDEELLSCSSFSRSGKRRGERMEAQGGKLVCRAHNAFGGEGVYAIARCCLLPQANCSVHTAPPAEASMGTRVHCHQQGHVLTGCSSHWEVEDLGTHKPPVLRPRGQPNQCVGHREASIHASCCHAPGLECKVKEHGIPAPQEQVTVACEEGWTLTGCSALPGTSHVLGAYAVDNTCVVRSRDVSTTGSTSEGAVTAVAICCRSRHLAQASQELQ
Sequence (Q8NBP7 31-152 partner limits assumed): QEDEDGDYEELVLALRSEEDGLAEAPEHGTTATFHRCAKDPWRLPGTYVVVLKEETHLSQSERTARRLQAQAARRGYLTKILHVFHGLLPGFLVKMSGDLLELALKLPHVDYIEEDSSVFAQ
Metric Name: IC50 (nM)
Answers are plain numbers, in nM.

Some solved entries appear below for comparison.
Smiles Code: COC[C@@H]1NC(=O)[C@H](C)N(Cc2ccc(Cl)cc2Oc2ccc(-c3cnc(CN4CCCC4)n3C)cc2)C(=O)C[C@@H]([C@H]2CCc3ccccc32)C(=O)N(CC2(C)CC2)C[C@@H](Cc2ccc(Cl)cc2)N(C)C1=O.Cl
Test System: human PCSK9 (Homo sapiens)
IC50 (nM): 25

Smiles Code: C[C@H]1C(=O)N[C@@H](CO)C(=O)N[C@@]2(Cc3ccc(Cl)cc3)CCCN(C2)C(=O)[C@H](Cc2ccc(C(F)(F)F)cc2)CC(=O)N1Cc1ccc(Cl)cc1Oc1ccc(-c2cnc(CN(C)C)n2C)cc1
Test System: human PCSK9 (Homo sapiens)
IC50 (nM): 0.963

Smiles Code: COC[C@@H]1NC(=O)[C@H](C)N(Cc2ccc(Cl)cc2Oc2ccc(-c3cnc(CN(C)C)n3C)nc2)C(=O)C[C@@H](CC(F)(F)F)C(=O)N2CCC[C@@](Cc3ccc(Cl)cc3)(C2)N(C)C1=O
Test System: human PCSK9 (Homo sapiens)
IC50 (nM): 0.152

Summary line: CCc1ccc(CN2C(=O)C[C@@H]([C@@H]3CCc4ccccc43)C(=O)N(C)C[C@H](Cc3ccc(Cl)cc3)N(C)C(=O)[C@H](CO)NC(=O)[C@@H]2C)c(Oc2ccc(-c3cnc(CN(C)C)n3C)cc2)c1 , human PCSK9 (Homo sapiens), reported IC50 = 59.6
